# System: Staphylococcus aureus ATCC 29213
# assay-overview: Antibacterial killing, 96-well turbidimetric (modified vCC) assay
# Format: cell-based
# experimental-conditions: Table S3; concentration at which 100% killing occurred, no bacterial regrowth; No = not active
experimental-endpoint: active against S.aureus (IC100%)

In the examples that follow, each entry is paired with its recorded active against S.aureus (IC100%).
{"compound": "OCC(CO)C1c2cccc3ccc4cccc1c4c23 [625586/1]", "active against S.aureus (IC100%)": "No"}
{"compound": "CC[n+]1c(/C=C/C=C/N(C(C)=O)c2ccccc2)sc2cc(OC)ccc21 [STK874226]", "active against S.aureus (IC100%)": "125 µM"}
{"compound": "Oc1ccc2ccccc2c1C(c1ccc(Cl)cc1)c1c(O)ccc2ccccc12 [Compound 363003]", "active against S.aureus (IC100%)": "3,9 µM"}
{"compound": "O=C(O)C(=O)O.c1ccc(CCCN2CCC(N3CCN(c4ccccc4)CC3)CC2)cc1 [Compound 6785396]", "active against S.aureus (IC100%)": "No"}
{"compound": "CCN1/C(=C/C=C/C=C/C2=CC(=C/c3sc4ccccc4[n+]3CC)/CC(C)(C)C2)Sc2ccccc21 [STK792971]", "active against S.aureus (IC100%)": "62,5 µM"}
{"compound": "OCCSc1ccc(Cc2ccc(SCCO)cc2)cc1 [Compound 5210734]", "active against S.aureus (IC100%)": "No"}

Quick batch: active against S.aureus (IC100%) for everything below.
1. Fc1ccc(N2CCN(Cc3ccc(-c4ccccc4)cc3)CC2)cc1 [Compound 5267798]
2. CC(C)(O)C#Cc1ccc(C#Cc2ccc(C#CC(C)(C)O)cc2)cc1 [Compound 7191067]
3. CCCN1CCC(NCc2cccc(C(F)(F)F)c2)CC1 [Compound 5452876]
4. OCCSc1c(F)c(SCCO)c(SCCO)c(F)c1SCCO [Compound 0438-0367]
5. CCN1C(=O)C(c2ccc(O)cc2)(c2ccc(O)cc2)c2ccccc21 [Compound 4896-3423]
6. Clc1ccc(N2CCN(Cc3ccc(-c4ccccc4)cc3)CC2)cc1 [Compound 5270046]
7. COc1ccc(-c2cn(CC(=O)N(c3ccccc3)C(C)C)c3[n+]2CCC3)cc1 [STL050072]

["No", "No", "No", "No", "No", "No", "No"]
